Each recorded value in this set is attributed to PubChem BioAssay (NCI).

Test system: HCT-116 colon
Outcomes you can answer with include only these: 1 = active, -1 = inactive

>>> classification("Cc1nc2ccccn2c1NC(=O)NNC(=S)Nc1ccc(Cl)cc1")
-1
>>> classification("C=C1C(=O)c2sccc2C(c2ccc(OC)c(OC)c2)C1COC(C)=O (stereo unspecified)")
-1
>>> classification("CCSc1nc2[nH]c(=S)[nH]c(=S)c2c(-c2ccc(OC)c(OC)c2)c1C#N")
-1
>>> classification("CC(=O)Nc1cccc(C#Cc2cncnc2Nc2ccc(OCc3cccc(F)c3)c(Cl)c2)n1")
-1
>>> classification("COc1ccc2c(c1)SC1=NNC(Cl)C(=O)N12 (stereo unspecified)")
-1

QUERY: Query: recorded result category for COc1ccc(C2C(C#N)=C(N)Oc3c2sc2c(C)cccc32)cc1 (stereo unspecified) in this test
RESULT: 1

QUERY: Query: recorded result category for CCN(CC)CCNc1ccc(C)c2sc3ccccc3c(=O)c12 (tested in a mixture with another compound) in this test
RESULT: -1

QUERY: Query: recorded result category for `COc1cc(C(=O)/C=C/c2c(C)n([O-])c3ccc(C(F)(F)F)cc3[n+]2=O)cc(OC)c1OC` in this test
RESULT: -1

QUERY: Query: recorded result category for COc1ccccc1N1CCN(CC(O)COc2c(Br)c(Br)c(Br)c3c2OC(C)(C)C3)CC1 (stereo unspecified) in this test
RESULT: -1

QUERY: Query: recorded result category for `Cn1cc(C2=C(c3cn(C)c4ccc(OCc5ccccc5)cc34)C(=O)NC2=O)c2ccccc21` in this test
RESULT: -1

QUERY: Query: recorded result category for `CC#CC#Cc1cccc(=O)o1` in this test
RESULT: -1
